Reference source: paper PMC2756588

Molecular target: T1, Cyk3, Q07533
T1 sequence (Q07533 1-83, looked up): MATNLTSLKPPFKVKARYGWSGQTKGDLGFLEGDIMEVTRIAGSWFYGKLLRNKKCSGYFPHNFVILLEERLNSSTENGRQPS
Experiment: SPOT array
Conditions: median of control spots 1451
Outcome Measure: SPOT intensity
Please give the numeric answer without any surrounding text.

[[record]]
binder = "KKAPPPVVKPKPRNF"
quantitative_result = 5


Item SSSSTPPTLPPRRIE : provide SPOT intensity
0

Give reported SPOT intensity value for IPSRPAPKPPSSASA
3

# return recorded SPOT intensity for entry ILARAILTIPRVLDK
0

Please list SPOT intensity recorded for the binder LYKRKPILLPDPKPL
0

State, in one line, measured SPOT intensity of VQQDSLPKLPFRSWG
0

Identify the reported SPOT intensity for the following entry. SKAKRPKFLLDLQIK
4

Quick one: give measured SPOT intensity for AVPPPPPPPPLPESL
2
